Values compiled from patent US20220265709A1.

# test_system: Fc-fused Cynomolgus BCMA (ACRO Biosystems, Cat. #: BCA-C5253) (cynomolgus)
# protocol: SPR (BIAcore T200) affinity ranking; crude sdAb captured via tag, antigen at 100 nM
For each of the binders below, state its log10 Kd.
// do not treat as linear: log10 of Kd, unit nM

Query log10 Kd for anti-BCMA sdAb BCMA10 (VHH, part only, affinity tag) VHH: QVQLAESGGGLVQPGGSLRLSCAGSGFTFSSYDMNWVRQAPGKGLERVSTTFNGDDGTNYADSVLGRFTASRDKAKNTLYLQMNSLKTEDTAVYYCAAAVPGVDWYDTTRYKYWGQGTQVTVSS
1.70

Determine its reported log10 Kd: anti-BCMA sdAb BCMA13 (VHH, part only, affinity tag) VHH: QVHLVESGGGSVQAGGSLRLSCKASGAIYDTNCMAWFRQTPGKEREGVATIDLGNPITYYADSVKGRFTISRDNAKNTMYLQMNSLKPEDTAMYYCAATSWWPCPANNVGYANWGQGTQVTVSS
1.11

Please report log10 Kd for the following binder: anti-BCMA sdAb BCMA7 (VHH, part only, affinity tag) VHH: QVHLMESGGGSVQSGGSLRLSCAASGYTYSSYCMAWFRQAPGKEREGVAAIASDGSTYYTDSVKGRFTISQDNAKNTLYLQMNSLKPEDTAMYYCGADPVGCSWPDYWGQGTQVTVSS
1.63

Look up log10 Kd of anti-BCMA sdAb BCMA11 (VHH, part only, affinity tag) VHH: QVQLVESGGGVVQPGGSLRLSCAASGFAFSNYAMTWGRQAPGQRLEWVSTIDSGGGSTTYSDSVKGRFTISRDNAKNTLYLQLNNLKSEDTAVYYCSENVDCNGDYCYRANYWGQGTQVTVSS and report it.
1.20

Give log10 Kd for the following binder: anti-BCMA sdAb BCMA6 (VHH, part only, affinity tag) VHH: QMQLVESGGGSVQAGGSLRLSCTASGYTFDDSAMGWYRQAPGNECELVSSISSDGSTYYSDSVKGRFTISQDNAKNTMYLQMNSLKPEDTAVYSCAASSGEDGGSWSTPCHFFGYWGQGTQVTVSS
-0.08
